Can you tell me Kd for the items I'm about to list?
Target: SARS-COV-2 RBD extracellular domain expressed with a C-terminal myc-myc-hexahistidine tag (SARS-COV-2 RBD-mmH) (SARS-CoV-2)
Assay: SPR Biacore, mAb captured on anti-hFc, RBD-mmH analyte, 37 C
Quick note: number first, unit second.

Input line: Need Kd of mAb15163 (antibody, V domains shown) VH: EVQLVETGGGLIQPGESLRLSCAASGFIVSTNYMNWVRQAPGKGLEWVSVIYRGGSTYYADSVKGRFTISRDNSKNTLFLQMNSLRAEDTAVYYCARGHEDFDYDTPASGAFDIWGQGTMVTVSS VL: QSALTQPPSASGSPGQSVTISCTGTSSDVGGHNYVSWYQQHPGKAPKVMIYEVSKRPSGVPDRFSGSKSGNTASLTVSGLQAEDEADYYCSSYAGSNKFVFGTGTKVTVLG , thanks.
Output line: 1.78 nM

Input line: Need Kd of mAb15165 (antibody, V domains shown) VH: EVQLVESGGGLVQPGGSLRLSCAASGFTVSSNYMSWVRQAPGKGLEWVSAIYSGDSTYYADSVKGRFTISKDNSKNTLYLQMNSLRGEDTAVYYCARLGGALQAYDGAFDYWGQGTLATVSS VL: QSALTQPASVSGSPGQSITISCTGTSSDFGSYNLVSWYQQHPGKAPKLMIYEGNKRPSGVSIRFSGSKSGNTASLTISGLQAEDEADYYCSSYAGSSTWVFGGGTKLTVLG , thanks.
Output line: 3.1 nM

Input line: Need Kd of mAb15162 (antibody, V domains shown) VH: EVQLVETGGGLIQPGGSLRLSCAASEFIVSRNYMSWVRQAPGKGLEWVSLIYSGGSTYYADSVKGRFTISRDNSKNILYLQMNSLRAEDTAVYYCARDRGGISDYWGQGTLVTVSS VL: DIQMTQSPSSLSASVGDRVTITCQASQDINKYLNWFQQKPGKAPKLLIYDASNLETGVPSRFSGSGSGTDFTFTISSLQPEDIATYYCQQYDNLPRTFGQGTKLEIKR , thanks.
Output line: 29.2 nM
